- MEASURED_TARGET: BRISC BRCC45 C245A (Homo sapiens, UniProt P46736+Q15018+Q9NXR7, C245A)
- EXPERIMENT: BRISC mutant IQF assay: BRCC45 C245A
VALUE_KIND: IC50 (µM)
I only need the number, in µM, no unit after it.

Q: Item under review: O=C(NC1C2CNCC21)c1nn(C(=O)c2c(Cl)cccc2Cl)cc1NC(=O)c1c(Cl)cccc1Cl (stereo not shown) . Reported IC50?
Result: 31

* * *

Reported pIC50 values are given for each entry in this list.
- MEASURED_TARGET: BRISC (Homo sapiens, UniProt P46736+Q15018+Q9NXR7)
- Construct: made in house; host or cells: Spodoptera frugiperda (Sf9) insect cells, MultiBac
- EXPERIMENT: BRISC DUB activity assay (IQF K63-linked diubiquitin)
- Format: biochemical
- CONDITION_SUMMARY: 32-point dose-response, biphasic fit; read-out: IC50(1), biphasic curve
- Description: IQF assays were performed in DUB reaction buffer containing 50 mM HEPES–NaOH pH 7.0, 100 mM NaCl, 0.1 mg ml^−1 BSA, 1 mM DTT and 0.03% v/v Brij-35. […] Michaelis–Menten analyses and Lineweaver–Burk plots were calculated using GraphPad Prism (version 9.0). To assess enzymatic activity, BRISC complexes were diluted to concentrations between 1 nM and 50 nM. […] DUB activity was measured using IQF K63-linked diubiquitin (LifeSensors, DU6303) at 50 nM. […]
pIC50 is a log-scale quantity: -log10 of the concentration expressed in molar.

Q: Item under review: O=C(NC1C2CNCC21)c1nn(C(=O)c2c(Cl)cccc2Cl)cc1NC(=O)c1c(Cl)cccc1Cl (centres unmarked) . Reported pIC50?
Result: 5.14

Continuing:
Q: Item under review: O=C(NC1CCNCC1)c1nn(C(=O)c2c(Cl)cccc2Cl)cc1NC(=O)c1c(Cl)cccc1Cl . Reported pIC50?
Result: 5.96
